Measured IC50, HXB2 pseudovirion entry, listed per entry for reference.
Target: HIV-1 HXB2 envelope glycoprotein gp41 (N-trimer of the prehairpin intermediate) (HIV-1 strain HXB2, UniProt P04578 512-856)
Assay: cell-based or functional assay
Bridges are numbered along the chain shown (N, C = ends). Where no end group is shown, it is not given here. [ ]: non-standard residue; d: D form.

Binder: Ac-[dH][dP][dC][dD][dY][dP][dE][dW][dQ][dW][dL][dC][dE][dL]GK-NH2 (disulfide 3-12 (inferred); not fully specified (residue 16); also: homotrimer on trimethylolethane-triNHS ester scaffold) [PEG4-PIE12-trimer]
Result: 0.72 nM

Please look at the following binder next.
Q: # lookup: IC50, HXB2 pseudovirion entry of [dC][dD][dY][dP][dE][dW][dQ][dW][dL][dC][dE][dL]GK (disulfide 1-10 (inferred); not fully specified (residue 14); also: homotrimer on trimethylolethane-triNHS ester scaffold) [PEG4-ΔHP-PIE12-trimer]
Result: 300 nM
